A collection of compounds and their measured mass density
Settings: 293.15 K; 2000 kPa; Liquid
Kindly provide the numeric value in kg/m3 only, without the unit symbol.

Example entries and their recorded answers appear below.
CCn1cc[n+](C)c1.O=S(=O)([N-]S(=O)(=O)C(F)(F)F)C(F)(F)F | 1527
CCCCCCCn1cc[n+](C)c1.O=S(=O)([N-]S(=O)(=O)C(F)(F)F)C(F)(F)F | 1354
CCCCCCCCn1cc[n+](C)c1.O=S(=O)([N-]S(=O)(=O)C(F)(F)F)C(F)(F)F | 1329

For the next question, use this compound.
Specify measured mass density for CCn1cc[n+](C)c1.F[B-](F)(F)F [1-ethyl-3-methylimidazolium tetrafluoroborate] .
1306
